Property: melting point; scope: individual molecules

Recorded melting point, per entry:
1. CNC(=O)CC1CN=C(c2cc3cc(Oc4ccc(S(C)(=O)=O)nc4)cc(OC(C)COC)c3[nH]2)S1 (stereo not shown) : 107 to 109 °C
2. CC(CO)Oc1cc(Oc2ccc(S(C)(=O)=O)cc2)cc2cc(C3=NCC(CCO)S3)[nH]c12 (stereo not shown) : 165 to 169 °C
3. CNC(=O)CC1CN=C(c2cc3cc(Oc4ccc(S(C)(=O)=O)nc4)c(F)c(OCCOC)c3[nH]2)S1 (stereo not shown) : 151 to 152 °C

Please look at this molecule and report its melting point: COc1cc(Oc2ccc(S(C)(=O)=O)cc2)cc2cc(C3=NCC(CC(=O)O)S3)[nH]c12 (stereo not shown)
144 to 145 °C

Answer with the recorded melting point for the molecule listed here: CC(C)Oc1cc(Oc2ccc(S(C)(=O)=O)cn2)cc2cc(C3=NCC(CC(C)(C)O)S3)[nH]c12 (stereo not shown) [Example 63]
151 to 153 °C

Output melting point of CCOC(=O)c1nnc(-c2cc3cc(Oc4ccc(S(C)(=O)=O)cc4)cc(OCc4ccccc4)c3[nH]2)s1
194 to 195 °C

Please report melting point for the following molecule: COCC(C)Oc1cc(Oc2ccc(S(C)(=O)=O)nc2)cc2cc(C3=NCC(CCO)S3)[nH]c12 (stereo not shown)
138 to 139 °C

The values you see were collected from patent US8673942B2.
